Can you tell me Plant response rating, Galium for the items I'm about to list?
Test system: Galium (catchweed bedstraw, Galium aparine)
ASSAY PROCEDURE: Test A postemergence
Assay type: in vivo
RUN CONDITIONS: 125 g ai/ha, postemergence; visual rating after approx. 10 d, 0 to 100 scale (0 no effect, 100 complete control)
From the text: […]

Some compounds with recorded Plant response rating, Galium:
CN1CC(c2cccc(OC(F)F)c2)C(C(=O)Nc2ccc(F)cc2F)C1=O (centres unmarked) [Compound 617]: 60
O=C1NCC(c2cc(C(F)(F)F)cc(C(F)(F)F)c2)C1C(=O)Nc1cccc(F)c1F (centres unmarked) [Compound 588]: 0

Fill in Plant response rating, Galium for each of the 5 compounds listed.
1. O=C1NCC(c2cc(Cl)sc2Cl)C1C(=O)Nc1cccc(F)c1F (centres unmarked) [Compound 601]
2. CCc1cccc(C2CN(C)C(=O)C2C(=O)Nc2ccccc2S(C)(=O)=O)c1 (centres unmarked) [Compound 569]
3. Cc1ccc(C2CNC(=O)C2C(=O)Nc2ccc(F)cc2F)cc1C(F)(F)F (racemic) [Compound 655]
4. Cc1ccc(C2CN(C)C(=O)C2C(=O)Nc2ccccc2F)c(F)c1 (centres unmarked) [Compound 560]
5. CN1CC(c2ccc(Br)cc2)C(C(=O)Nc2cccc(F)c2F)C1=O (centres unmarked) [Compound 564]

0
40
30
40
70

Form field Plant response rating, Galium, entry N#Cc1cccc(C2CNC(=O)C2C(=O)Nc2cccc(F)c2F)c1 (centres unmarked) [Compound 621] : 30

----------
Tested on: Kochia (Kochia scoparia)
ASSAY PROCEDURE: Test A preemergence
Format: in vivo
RUN CONDITIONS: Preemergence, 500 g ai/ha, visual injury approx. 10 d
Classify as follows. Reported Kochia plant response rating (0 to 100 scale, 0 is no effect, 100 is complete control) greater than or equal to 70: fulfilled. Reported Kochia plant response rating (0 to 100 scale, 0 is no effect, 100 is complete control) below: not fulfilled.

Is the recorded value of Kochia plant response rating (0 to 100 scale, 0 is no effect, 100 is complete control) equal to or greater than 70 for this compound? CN1CC(c2ccc(Br)cc2)C(C(=O)Nc2ccccc2F)C1=O (stereo not shown) [Compound 563]
fulfilled

----------
Test system: giant foxtail (Setaria faberi)
ASSAY PROCEDURE: Test G Post-Emergence Protocol
Assay type: in vivo
RUN CONDITIONS: Setaria faberi, post-emergence, 312 h, 15.625 g ai/ha, evaluated after 13 days (100=total damage to plant; 0=no damage to plant), read-out: Foxtail, Giant damage rating
MEASURE NAME: pest or weed control at 15.625 g/ha (%)
Give bare numbers, in %.

Some molecules with recorded pest or weed control at 15.625 g/ha:
CN1CC(c2ccc(C(F)(F)F)c(C(F)(F)F)c2)C(C(=O)Nc2cccc(F)c2F)C1=O (stereo not shown) [Compound 1714]: 70
CC(O)c1ccccc1NC(=O)[C@H]1C(=O)N(C)C[C@@H]1c1cccc(C(F)(F)F)c1 (mixture of isomers) [Compound 1783]: 80
Cc1c(Cl)ccc([C@@H]2CN(C)C(=O)[C@H]2C(=O)Nc2cccc(F)c2F)c1F (racemic) [Compound 1473]: 60

Form field pest or weed control at 15.625 g/ha, entry CSc1nccc(NC(=O)[C@@H]2C(=O)N(C)C[C@H]2c2ccc(C(F)(F)F)cc2)n1 (racemic) [Compound 1516] : 0
